Record form. Attribute: growth inhibition. Fill in for each entry.
experimentNotes: NCI Yeast Anticancer Drug Screen. Data for the mec2-1 strain (AID 157)
conditionNotes: S. cerevisiae mec2-1 strain, at 50.0 µM, stronger effect = higher value
About 79,000 compounds went through this panel and 15% of them were active in at least one assay; those are over-represented in the sample as a whole.
One number for each entry, in %.

For orientation, consider the following solved cases.
- CC1(C)OC[C@@H](O)[C@H](C#N)CO1: 27.6
- COc1ccc2c(c1)C1Oc3ccccc3CC1(O)CO2 (configuration not stated): 6.75
- O=C(CCn1[nH]c(=O)c(Cl)c(Cl)c1=O)NO: -14.1

Quick one: give me growth inhibition for each item below, same order please.
1. Cc1nn(-c2nc(-c3ccc(Br)cc3)cs2)c(C)c1C
2. CC[N+]1(C)CCOCC1
3. CC(NS(=O)(=O)c1cccc(C(=O)O)c1)c1ccccc1 (configuration not stated)
4. O=C1NN2CCCN=C2c2ncccc21

Completion:
1: -4.9; 2: 3.35; 3: -14.5; 4: 2.1

====

For each record, write down the corresponding growth inhibition.
experimentNotes: NCI Yeast Anticancer Drug Screen. Data for the rad50 strain (AID 155);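 further: 0% = growth of vehicle-only cultures of the same strain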
conditionNotes: S. cerevisiae rad50 strain growth inhibition; at 50.0 µM; stronger effect = higher value
The panel holds about 79,000 compounds, 15% with a hit somewhere; the sample as a whole holds those more often.
Answers are plain numbers, in %.

- Cc1ccc(NC(=O)Oc2ccccn2)cc1: -9.7
- CCOC(=O)C(NC(=O)c1cccc(Cl)c1)(Nc1ccc(S(=O)(=O)Nc2cc(C)on2)cc1)C(F)(F)F (configuration not stated): 67.2
- O=c1[nH]c2cc(Cl)ccc2nc1/C=C(\O)c1ccc2ccccc2c1: 27.2

Could I get growth inhibition for every one of these entries?
1. Nc1nc(NC(=O)C2=NS(=O)(=O)c3cc(S(N)(=O)=O)c(Cl)cc3N2)n[nH]1
2. O=NC1C2CCC(C2)C1N=O.[Co].[c-]1[c-][c-][cH-][c-]1 (configuration not stated)
3. Nc1ncnc2c1cnn2-c1ccc(Cl)cc1

Completion:
[-8.9, 9.4, 42]

Give one value of growth inhibition per listed compound.
1. O=C(/C=C/c1ccccc1)OCCCl
2. C1CSCCSCCSCCSC1
3. O=C1CCC2CCc3cccc1c32 (configuration not stated)

Completion:
[-23.4, -8.05, 0.15]

Return reported growth inhibition values for all items listed beneath this line.
1. CCCCCCCCCCCCCCCCCCCCCCCCCC
2. Cc1cn2cc(-c3cccs3)nc2s1
3. C1=C2CCc3ccc(o3)CCC(=C1)O2

Completion:
1. -11.4
2. 15.2
3. 7.55

====

experimentNotes: NCI Yeast Anticancer Drug Screen. Data for the mlh1 rad18 strain (AID 175)
conditionNotes: S. cerevisiae mlh1 rad18 strain growth inhibition; at 50.0 µM; stronger effect = higher value
The panel holds about 79,000 compounds, 15% with a hit somewhere; the sample as a whole holds those more often.
propertyMeasured: growth inhibition (%)
One number for each entry, in %.

// each listed molecule needs a value for growth inhibition
1. O=C1NCCN(CCc2ccccc2)C1c1ccccc1 (stereo not drawn)
2. O=C(N=Nc1c(O)[nH]c2ccccc12)c1ccncc1

Completion:
1: -6.05; 2: 11.1

Could you report growth inhibition for every entry in the following list?
1. Cc1csc(NNC(=O)Nc2ccccc2)n1
2. Oc1[nH]c2ccccc2c1N=NC1=NCCCCN1
3. CC(C)CCOc1ccc(C(N)=S)c2ccccc12
4. COC(=O)C(CC(=O)[C@H]1CC[C@H]2[C@@H]3CC=C4C[C@@H](OC(C)=O)CC[C@]4(C)[C@H]3CC[C@]12C)OC(C)=O (stereo partly drawn)
5. Cc1nc2nn(C)cc2c(=O)n1/N=C/c1ccccc1
6. COc1ccc(C(O)C(C)(C(=O)O)c2ccccc2)cc1 (stereo not drawn)
7. COc1ccc(C2C(Cl)C(=O)N2NC(=O)c2ccccc2O)cc1 (stereo not drawn)

Completion:
[7.5, -14.7, 95.2, 8.7, -37.4, 8.55, -34.8]

For each of the molecules below, state growth inhibition.
1. NC1CCCCC1N.O=S(=O)([O-])CCCNC1CCCCC1.O=S(=O)([O-])CCCNC1CCCCC1.[Pt+4]
2. COC(=O)COc1ccc(Cl)cc1C(=O)O
3. COc1ccccc1OCC(O)CNc1ccc(Cl)cc1C(=O)c1ccccc1 (stereo not drawn)
4. COC1=CC(=O)c2nc3ccccc3c3ccnc1c23
5. Cc1cc(N(CCC#N)CCC#N)ccc1N=Nc1cccc(C(=O)O)c1

Completion:
[15.9, 17.1, -19.4, 87.2, -27.1]

Could you report growth inhibition for every entry in the following list?
1. CCOC(=O)C(CC1OCCO1)C1=NC(C)(C)CC(C)O1 (stereo not drawn)
2. ON=C1CCCCC1
3. N#Cc1c(-c2ccc(Cl)cc2)c2c(n(C3OC(CO)C(O)C(O)C3O)c1=S)CCC2 (stereo not drawn)
4. CC1OC(OCC2COC(O)(Oc3c(-c4ccc(O)c(O)c4)oc4cc(O)cc(O)c4c3=O)C(O)C2O)C(O)C(O)C1O (stereo not drawn)
5. C=CCN=C(N)SCCN(CCSC(N)=NCC=C)C(N)=O
6. CCOc1ccc(/C=C2/NC(=S)N(CN3CCCCC3)C2=O)cc1

Completion:
1: 3.85; 2: 25.1; 3: 42.4; 4: 13.9; 5: 13.1; 6: 24.6

List reported growth inhibition for each of these molecules:
1. CC12CCC(O)CC1=CCC1C2CCC2(C)C(C(O)CC(O)(C(F)(F)F)C(F)(F)F)CCC12 (stereo not drawn)
2. CC1CCCC(C(O)CC2CC(=O)NC(=O)C2)C1O (stereo not drawn)
3. CC1COC(C)(C2CC2)O1 (stereo not drawn)

Completion:
[40.5, 4.45, 6.5]
